Target: T1, MUT-#14 (Q476A/K513A) (Caenorhabditis elegans, UniProt Q09487 172-535, Q476A;K513A)
T1 sequence: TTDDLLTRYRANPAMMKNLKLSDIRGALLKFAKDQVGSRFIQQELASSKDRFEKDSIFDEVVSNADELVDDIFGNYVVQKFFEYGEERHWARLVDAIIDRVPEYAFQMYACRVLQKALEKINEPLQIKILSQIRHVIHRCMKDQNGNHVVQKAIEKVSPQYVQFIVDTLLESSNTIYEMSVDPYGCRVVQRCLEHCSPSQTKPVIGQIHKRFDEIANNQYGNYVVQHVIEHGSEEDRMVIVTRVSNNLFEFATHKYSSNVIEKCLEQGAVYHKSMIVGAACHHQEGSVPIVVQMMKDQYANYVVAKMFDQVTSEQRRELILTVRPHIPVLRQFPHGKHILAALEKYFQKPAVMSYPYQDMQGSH
Experiment: fluorescence polarization
Measured Quantity: Kd (nM)
One number for each entry, in nM.

Problem: Recorded Kd for UGUAAAUA (ssRNA) [PBE-5A FAM] , please?
Solution: 210

Data origin: paper PMC8464079
